- Tested on: SN12C renal
- test_method_notes: NCI tumour cell line growth inhibition, 48 h; in the data active = GI50 below about 0.43 µM; inactive = the rest
Thanks in advance; please answer with one of these: active, inactive

O=S(=O)([O-])[O-].[Cl-].[NH2-].[NH2-].[NH2-].[NH2-].[Ru+3].c1ccc(-c2cccnc2)cc1: inactive
Nc1ccc(N=Nc2ccccc2)c(N)n1: inactive
Nc1ccc(-c2nc3ccccc3[nH]2)c(O)c1: inactive
c1cc(C2CCCCC2)ccc1OCCCCCCN1CCNCC1: inactive

## Input // outcome(item) with item = `O=C1c2ccccc2-c2c1c1ccc([N+](=O)[O-])cc1c(=O)n2CCNCCCNCCn1c2c(c3ccc([N+](=O)[O-])cc3c1=O)C(=O)c1ccccc1-2`
## Output active

## Input // outcome(item) with item = `CC(=N\O)/C(C)=N/O.CC(=N\O)/C(C)=N/O.CC(=N\O)/C(C)=N/O.CC(=N\O)/C(C)=N/O.[Cu].[Cu]`
## Output inactive

## Input // outcome(item) with item = Fc1ccc(C2CC(c3cccc(Nc4ccncc4)c3)=NN2c2cc(Cl)cc(Cl)c2)cc1 (configuration not stated)
## Output inactive
